ASSAY DETAILS: protein stability index of a GFP-peptide fusion (GPS, HEK-293T) (PSI 1-6); higher = more stable;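 note: 24-mer peptide tiles fused after GFP, lentivirally expressed, FACS-sorted into six equal bins by GFP/DsRed ratio, decoded by Illumina sequencing, PSI is the read-weighted mean bin number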
PROTOCOL CONDITIONS: treatment: DMSO; c terminus: a fixed tail appended
Use Y when the recorded protein stability index is no lower than 4; use N when it is lower.

**Query** Can TATMKDLEAEVKDTTRVENLIKSE [R3HDM1] be said to have protein stability index at or above 4?
**Result** Y

**Query** Can PTGDVLLDEALKHVKETQPPETVQ [GOLPH3] be said to have protein stability index at or above 4?
**Result** Y

**Query** Can DFCKVFLISGVTLDNCVEVGRIAN [KLHL13] be said to have protein stability index at or above 4?
**Result** N

**Query** Can VASNSELVQSSRSEVTELRRVLQG [KRT16] be said to have protein stability index at or above 4?
**Result** Y

**Query** Can LSQLRVLCCEWLRPEKHTKEQILE [ZNF232] be said to have protein stability index at or above 4?
**Result** N

**Query** Can MNEVEKTMEYSMVGRTVLDMLIRE [RSPH3] be said to have protein stability index at or above 4?
**Result** N

**Query** Can TFNFISSLKAICTEIANCSLKVKF [PLD5] be said to have protein stability index at or above 4?
**Result** N
